All figures here come from patent US20170260272A1.

- Target Desc: T1, APP-Avi-soluble cynomolgus monkey LOX-1(61-273) (cynomolgus monkey)
- T1 construct: Non-biotinylated as titrated antigen in SET, biotinylated for capture on the plate; also called cyno sLOX-1; cynomolgus monkey soluble LOX-1
- T1 sequence (chain, as listed by the source limits assumed): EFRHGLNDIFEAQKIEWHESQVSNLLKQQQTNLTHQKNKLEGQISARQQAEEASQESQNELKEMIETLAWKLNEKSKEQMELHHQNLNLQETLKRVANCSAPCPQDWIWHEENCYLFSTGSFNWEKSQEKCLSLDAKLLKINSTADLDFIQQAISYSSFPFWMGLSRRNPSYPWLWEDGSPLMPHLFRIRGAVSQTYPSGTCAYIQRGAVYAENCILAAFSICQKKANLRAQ
- Method Description: SET, IgG vs soluble cynomolgus LOX-1
Readout Kind: Kd (pM)
Write the value in pM as a bare number.

Known Kd results, listed for orientation:
Return reported Kd; argument: MOR021435 (antibody, human IgG1, kappa, L234A L235A, V domains shown, also called MOR21435) VH: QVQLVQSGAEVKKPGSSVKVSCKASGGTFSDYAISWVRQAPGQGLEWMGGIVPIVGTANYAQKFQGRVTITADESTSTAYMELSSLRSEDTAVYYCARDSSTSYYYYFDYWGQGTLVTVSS VL: DIQMTQSPSSLSASVGDRVTITCRASQDINSWLAWYQQKPGKAPKLLIYQASNLQSGVPSRFSGSGSGTDFTLTISSLQPEDFATYYCQQMWQFPITFGQGTKVEIKR 5

Which Kd reading was recorded for the binder MOR021460 (antibody, human IgG1, lambda, L234A L235A, V domains shown, also called MOR21460) VH: QVQLLESGGGLVQPGGSLRLSCAASGFTFSDYALHWVRQAPGKGLEWVSVISYQGGFIYYADSVKGRFTISRDNSKNTLYLQMNSLRAEDTAVYYCARSPGLTSYHDSWGQGTLVTVSS VL: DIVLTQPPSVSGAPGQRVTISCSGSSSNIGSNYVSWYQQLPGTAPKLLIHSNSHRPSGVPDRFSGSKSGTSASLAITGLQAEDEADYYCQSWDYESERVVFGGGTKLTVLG ? 0.7

Recorded Kd for MOR22031 (antibody, human IgG1, kappa, L234A L235A, V domains shown, Human IgG1f LALA; also called MOR022031; MOR20231) VH: QVQLVQSGAEVKKPGSSVKVSCKASGGTFSDYAISWVRQAPGQGLEWMGGIMPISGAPYYAQKFQGRVTITADESTSTAYMELSSLRSEDTAVYYCARDSSTSYYYYFDYWGQGTLVTVSS VL: DIQMTQSPSSLSASVGDRVTITCRASQDISSWLAWYQQKPGKAPKLLIYQASNLQSGVPSRFSGSGSGTDFTLTISSLQPEDFATYYCQQIDHTPFTFGQGTKVEIKR , please? 4

So what does the record say about Kd for MOR021433 (antibody, human IgG1, kappa, L234A L235A, V domains shown, also called MOR21433) VH: QVQLVQSGAEVKKPGSSVKVSCKASGGTFSDYAISWVRQAPGQGLEWMGGIMPISGAPYYAQKFQGRVTITADESTSTAYMELSSLRSEDTAVYYCARDSSTSYYYYFDYWGQGTLVTVSS VL: DIQMTQSPSSLSASVGDRVTITCRASQDINSWLAWYQQKPGKAPKLLIYQASNLQSGVPSRFSGSGSGTDFTLTISSLQPEDFATYYCQQIDHTPFTFGQGTKVEIKR ? 4

As a next step, examine the binder that follows.
// returns reported Kd for input MOR021468 (antibody, human IgG1, lambda, L234A L235A, V domains shown, also called MOR21468) VH: QVQLLESGGGLVQPGGSLRLSCAASGFTFSDYALHWVRQAPGKGLEWVSVISYAGGFKFYADSVKGRFTISRDNSKNTLYLQMNSLRAEDTAVYYCARSPGLTSYHDSWGQGTLVTVSS VL: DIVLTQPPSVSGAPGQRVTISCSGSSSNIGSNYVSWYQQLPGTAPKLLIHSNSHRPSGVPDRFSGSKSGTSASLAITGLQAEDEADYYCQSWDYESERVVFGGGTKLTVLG 0.5
